- TARGET SYSTEM: activated human C1 (Homo sapiens)
- ASSAY SUMMARY: Test Code 026 (C1 inhibitor): ability of activated human C1 to destroy fluid phase human C2 in the presence of C4
- Assay type: biochemical
- CONDITIONS USED: Table II (intermediates); two-fold serial dilution assay, higher well number indicates higher activity
Structures can show the parent of a compound that is named as a salt.
ENDPOINT LABEL: Cl 026 (C1 inhibitor)

1. Cc1ccc(C(=O)Nc2ccc(S(=O)(=O)O)c3cc(S(=O)(=O)O)cc(S(=O)(=O)O)c23)cc1NC(=O)c1cc(N)cc(C(=O)O)c1 [trisodium salt] | +2 Wells
2. Cc1ccc(S(=O)(=O)Nc2ccc(S(=O)(=O)[O-])c3cc(S(=O)(=O)[O-])cc(S(=O)(=O)[O-])c23)cc1NC(=O)c1cc(N)cc(C(=O)O)c1.[Na+].[Na+].[Na+] | +2 Wells
3. Cc1ccc(NC(=O)c2ccc(N)cc2S(=O)(=O)O)cc1S(=O)(=O)Nc1cc(S(=O)(=O)O)cc2cc(S(=O)(=O)O)cc(S(=O)(=O)O)c12 | +4 Wells
4. Cc1ccc(C(=O)Nc2ccc(S(=O)(=O)O)c3cc(S(=O)(=O)O)cc(S(=O)(=O)O)c23)cc1NC(=O)c1ccc(N)cc1S(=O)(=O)O | +2 Wells
5. Cc1ccc(C(=O)Nc2cc(C(=O)O)cc(C(=O)Nc3ccc(S(=O)(=O)O)c4cc(S(=O)(=O)O)cc(S(=O)(=O)O)c34)c2)cc1N [trisodium salt] | +3 Wells
6. Nc1ccc(C(=O)Nc2cccc(S(=O)(=O)Nc3cc(S(=O)(=O)O)cc4cc(S(=O)(=O)O)cc(S(=O)(=O)O)c34)c2)c(S(=O)(=O)O)c1 | +3 Wells
